Listed here are compounds together with their documented log10 Ki.
# experimental.system: Delta-type opioid receptor (Rattus norvegicus)
# Sequence (P33533 whole entry): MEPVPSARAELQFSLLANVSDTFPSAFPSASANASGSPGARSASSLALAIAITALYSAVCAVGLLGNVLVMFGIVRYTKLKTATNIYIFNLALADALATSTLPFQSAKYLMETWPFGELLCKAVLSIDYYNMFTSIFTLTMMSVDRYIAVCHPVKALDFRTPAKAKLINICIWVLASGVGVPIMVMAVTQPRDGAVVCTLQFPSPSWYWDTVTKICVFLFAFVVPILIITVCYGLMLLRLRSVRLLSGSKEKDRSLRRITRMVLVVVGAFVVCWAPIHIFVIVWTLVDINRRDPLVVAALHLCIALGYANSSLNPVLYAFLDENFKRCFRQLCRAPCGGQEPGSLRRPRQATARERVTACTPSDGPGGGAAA
# method.description: Inhibition of [3H]DSLET binding to delta 1 opioid receptors in rat brain membranes
# Format: cell membranes
Numbered stars: 1 amine (or outer) side, 2 acyl side, 3 side chain; on linkers, the order of the positions; unused ones are H or OH. Square brackets hold non-standard residues; d marks the D form. Peptide text beside a SMILES is read from it. X1 = CC[C@H](O)[C@H](N[*:1])C(=O)[*:2]
experimental.readout: log10 Ki (log10 of the value in nM)

{"compound": "CC[C@H](O)[C@H](NC(=O)[C@@H](N)Cc1ccc(O)cc1)C(=O)NCC(=O)N[C@@H](Cc1ccccc1)C(=O)N[C@@H](CC(C)C)C(=O)N[C@H](C(=O)O)[C@@H](C)O (H-Y[X1]GFLT-OH)", "experimental.system": "Delta-type opioid receptor (Rattus norvegicus)", "log10 Ki": 0.34}
{"compound": "CC(C)C[C@@H](C(=O)N[C@H](C(=O)O)[C@@H](C)O)N(C)C(=O)[C@H](Cc1ccccc1)NC(=O)CNC(=O)[C@H](NC(=O)[C@@H](N)Cc1ccc(O)cc1)[C@H](C)O", "experimental.system": "Delta-type opioid receptor (Rattus norvegicus)", "log10 Ki": 1.49}
{"compound": "CC(C)CC(C)NC(=O)CNC(=O)[C@@H](CO)NC(=O)[C@@H](N)Cc1ccc(O)cc1 (stereo partly drawn)", "experimental.system": "Delta-type opioid receptor (Rattus norvegicus)", "log10 Ki": 3.14}
{"compound": "CC(C)CCNC(=O)CNC(=O)[C@@H](C)NC(=O)[C@@H](N)Cc1ccc(O)cc1", "experimental.system": "Delta-type opioid receptor (Rattus norvegicus)", "log10 Ki": 3.01}
{"compound": "CC(C)CC(C)NC(=O)CNC(=O)[C@@H](C)NC(=O)[C@@H](N)Cc1ccc(O)cc1 (stereo partly drawn)", "experimental.system": "Delta-type opioid receptor (Rattus norvegicus)", "log10 Ki": 2.68}
{"compound": "CC(C)C[C@H](NC(=O)[C@H](Cc1ccccc1)NC(=O)CNC(=O)[C@H](NC(=O)[C@@H](N)Cc1ccc(O)cc1)[C@H](C)O)C(=O)N1C[C@H](O)C[C@H]1C(=O)O", "experimental.system": "Delta-type opioid receptor (Rattus norvegicus)", "log10 Ki": 0.88}
{"compound": "CC(C)C[C@H](NC(=O)[C@H](Cc1ccccc1)NC(=O)CNC(=O)[C@H](NC(=O)[C@@H](N)Cc1ccc(O)cc1)[C@H](C)O)C(=O)N[C@@H](CO)C(=O)O", "experimental.system": "Delta-type opioid receptor (Rattus norvegicus)", "log10 Ki": 0.62}
{"compound": "CC(C)C[C@H](NC(=O)[C@H](Cc1ccccc1)NC(=O)CNC(=O)[C@@H](CO)NC(=O)[C@@H](N)Cc1ccc(O)cc1)C(=O)N[C@H](C(=O)O)[C@@H](C)O", "experimental.system": "Delta-type opioid receptor (Rattus norvegicus)", "log10 Ki": 0.68}
{"compound": "CSCC[C@@H](NC(=O)[C@@H](N)Cc1ccc(O)cc1)C(=O)NCC(=O)NCCC(C)C", "experimental.system": "Delta-type opioid receptor (Rattus norvegicus)", "log10 Ki": 2.78}
{"compound": "CC(C)CC(C)NC(=O)CNC(=O)C(C)(C)NC(=O)[C@@H](N)Cc1ccc(O)cc1 (stereo partly drawn)", "experimental.system": "Delta-type opioid receptor (Rattus norvegicus)", "log10 Ki": 3.84}
{"compound": "CC(C)CC(C)NC(=O)CNC(=O)[C@@H](COC(C)(C)C)NC(=O)[C@@H](N)Cc1ccc(O)cc1 (stereo partly drawn)", "experimental.system": "Delta-type opioid receptor (Rattus norvegicus)", "log10 Ki": 1.59}
{"compound": "CC(C)C[C@H](NC(=O)[C@H](CC(C)C)NC(=O)[C@H](Cc1ccccc1)NC(=O)CNC(=O)[C@H](NC(=O)[C@@H](N)Cc1ccc(O)cc1)[C@H](C)O)C(=O)O", "experimental.system": "Delta-type opioid receptor (Rattus norvegicus)", "log10 Ki": 0.42}
{"compound": "CC(C)C[C@H](NC(=O)[C@H](CC(C)C)NC(=O)[C@H](Cc1ccccc1)NC(=O)CNC(=O)[C@@H](CO)NC(=O)[C@@H](N)Cc1ccc(O)cc1)C(=O)O", "experimental.system": "Delta-type opioid receptor (Rattus norvegicus)", "log10 Ki": 0.96}

----------
Listed here are molecules together with their documented IC50.
# experimental.system: Mu-type opioid receptor (Cavia porcellus, UniProt P97266)
# Sequence (P97266 whole entry): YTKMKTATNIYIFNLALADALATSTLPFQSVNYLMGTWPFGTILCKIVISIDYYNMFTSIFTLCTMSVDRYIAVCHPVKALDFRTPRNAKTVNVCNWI
# method.description: Inhibition of electrically evoked contraction of guinea pig ileum (myenteric plexus:longitudinal muscle preparation) by agonist action at mu 1 opioid receptors
experimental.readout: IC50 (µM)

{"molecule": "CC(C)C[C@H](NC(=O)[C@H](CC(C)C)NC(=O)[C@H](Cc1ccccc1)NC(=O)CNC(=O)[C@H](NC(=O)[C@@H](N)Cc1ccc(O)cc1)[C@H](C)O)C(=O)O", "operator.symbol": "=", "meas.value": 0.26}
{"molecule": "CC(C)CC(C)NC(=O)CNC(=O)[C@H](C)NC(=O)[C@@H](N)Cc1ccc(O)cc1 (stereo not given in full)", "operator.symbol": "≥", "meas.value": 50}
{"molecule": "CC(C)C[C@@H](C(=O)N[C@H](C(=O)O)[C@@H](C)O)N(C)C(=O)[C@H](Cc1ccccc1)NC(=O)CNC(=O)[C@H](NC(=O)[C@@H](N)Cc1ccc(O)cc1)[C@H](C)O", "operator.symbol": "=", "meas.value": 0.224}
{"molecule": "CC(C)CC(C)NC(=O)CNC(=O)[C@@H](CO)NC(=O)[C@@H](N)Cc1ccc(O)cc1 (stereo not given in full)", "operator.symbol": "=", "meas.value": 0.718}
{"molecule": "CC(C)C[C@H](NC(=O)[C@H](Cc1ccccc1)NC(=O)CNC(=O)[C@@H](CO)NC(=O)[C@@H](N)Cc1ccc(O)cc1)C(=O)N[C@H](C(=O)O)[C@@H](C)O", "operator.symbol": "=", "meas.value": 0.406}

----------
# experimental.system: Opioid receptors; mu & delta (Homo sapiens, UniProt P41143+P35372)
# method.description: Inhibition of electrically evoked contraction of guinea pig ileum (myenteric plexus;longitudinal muscle)[agonist action at mu 1 opioid receptors) and inhibition of electrically evoked contraction of mouse vas deferens (agonist action at delta 1 opioid receptor)
# Format: functional, tissue-based
Numbered stars: 1 amine (or outer) side, 2 acyl side, 3 side chain; on linkers, the order of the positions; unused ones are H or OH. Square brackets hold non-standard residues; d marks the D form. Peptide text beside a SMILES is read from it. X1 = CC[C@H](O)[C@H](N[*:1])C(=O)[*:2]; azaGly = NNC(=O)O
Listed here are compounds together with their documented log10 IC50.
experimental.readout: log10 IC50 (log10 of the value in nM)

{"compound": "CC(C)CC(C)NC(=O)CNC(=O)[C@@H](COC(C)(C)C)NC(=O)[C@@H](N)Cc1ccc(O)cc1 (some centres not stated)", "experimental.system": "Opioid receptors; mu & delta (Homo sapiens, UniProt P41143+P35372)", "experimental.readout": "log10 IC50", "meas.value": 2.02}
{"compound": "CCN(C(=O)CNC(=O)[C@@H](C)NC(=O)[C@@H](N)Cc1ccc(O)cc1)C(C)CC(C)C (some centres not stated)", "experimental.system": "Opioid receptors; mu & delta (Homo sapiens, UniProt P41143+P35372)", "experimental.readout": "log10 IC50", "meas.value": 3.26}
{"compound": "CC(C)C[C@H](NC(=O)[C@H](Cc1ccccc1)NC(=O)CNC(=O)NNC(=O)[C@@H](N)Cc1ccc(O)cc1)C(=O)N[C@H](C(=O)O)[C@@H](C)O (H-Y[azaGly]GFLT-OH)", "experimental.system": "Opioid receptors; mu & delta (Homo sapiens, UniProt P41143+P35372)", "experimental.readout": "log10 IC50", "meas.value": 1.58}
{"compound": "CC(C)C[C@H](NC(=O)[C@H](Cc1ccccc1)NC(=O)CNC(=O)[C@H](NC(=O)[C@@H](N)Cc1ccc(O)cc1)[C@H](C)O)C(=O)N[C@H](C(=O)O)[C@@H](C)O", "experimental.system": "Opioid receptors; mu & delta (Homo sapiens, UniProt P41143+P35372)", "experimental.readout": "log10 IC50", "meas.value": -0.82}
{"compound": "CSCC[C@@H](NC(=O)[C@@H](N)Cc1ccc(O)cc1)C(=O)NCC(=O)NCCC(C)C", "experimental.system": "Opioid receptors; mu & delta (Homo sapiens, UniProt P41143+P35372)", "experimental.readout": "log10 IC50", "meas.value": 2.87}
{"compound": "CC(C)C[C@H](NC(=O)[C@H](Cc1ccccc1)NC(=O)CNC(=O)[C@H](NC(=O)[C@@H](N)Cc1ccc(O)cc1)[C@H](C)O)C(=O)N[C@@H](CO)C(=O)O", "experimental.system": "Opioid receptors; mu & delta (Homo sapiens, UniProt P41143+P35372)", "experimental.readout": "log10 IC50", "meas.value": -0.60}
{"compound": "CC(C)C[C@H](NC(=O)[C@H](Cc1ccccc1)NC(=O)CNC(=O)[C@H](NC(=O)[C@@H](N)Cc1ccc(O)cc1)[C@H](C)O)C(=O)N1C[C@H](O)C[C@H]1C(=O)O", "experimental.system": "Opioid receptors; mu & delta (Homo sapiens, UniProt P41143+P35372)", "experimental.readout": "log10 IC50", "meas.value": 0.04}
{"compound": "CC(C)C[C@@H](C(=O)N[C@H](C(=O)O)[C@@H](C)O)N(C)C(=O)[C@H](Cc1ccccc1)NC(=O)CNC(=O)[C@H](NC(=O)[C@@H](N)Cc1ccc(O)cc1)[C@H](C)O", "experimental.system": "Opioid receptors; mu & delta (Homo sapiens, UniProt P41143+P35372)", "experimental.readout": "log10 IC50", "meas.value": 0.12}
{"compound": "CC(C)C[C@H](NC(=O)[C@H](CC(C)C)NC(=O)[C@H](Cc1ccccc1)NC(=O)CNC(=O)[C@@H](CO)NC(=O)[C@@H](N)Cc1ccc(O)cc1)C(=O)O", "experimental.system": "Opioid receptors; mu & delta (Homo sapiens, UniProt P41143+P35372)", "experimental.readout": "log10 IC50", "meas.value": 0.39}
{"compound": "CC(C)C[C@H](NC(=O)[C@H](CC(C)C)NC(=O)[C@H](Cc1ccccc1)NC(=O)CNC(=O)[C@H](NC(=O)[C@@H](N)Cc1ccc(O)cc1)[C@H](C)O)C(=O)O", "experimental.system": "Opioid receptors; mu & delta (Homo sapiens, UniProt P41143+P35372)", "experimental.readout": "log10 IC50", "meas.value": -0.39}
{"compound": "CC(C)CC(C)NC(=O)CNC(=O)[C@@H](CO)NC(=O)[C@@H](N)Cc1ccc(O)cc1 (some centres not stated)", "experimental.system": "Opioid receptors; mu & delta (Homo sapiens, UniProt P41143+P35372)", "experimental.readout": "log10 IC50", "meas.value": 3.00}
{"compound": "CC(C)CCNC(=O)CNC(=O)[C@@H](C)NC(=O)[C@@H](N)Cc1ccc(O)cc1", "experimental.system": "Opioid receptors; mu & delta (Homo sapiens, UniProt P41143+P35372)", "experimental.readout": "log10 IC50", "meas.value": 3.53}
{"compound": "CC(C)CC(C)NC(=O)CNC(=O)C(C)(C)NC(=O)[C@@H](N)Cc1ccc(O)cc1 (some centres not stated)", "experimental.system": "Opioid receptors; mu & delta (Homo sapiens, UniProt P41143+P35372)", "experimental.readout": "log10 IC50", "meas.value": 3.67}
{"compound": "CC(C)CC(C)NC(=O)CNC(=O)[C@@H](C)NC(=O)[C@@H](N)Cc1ccc(O)cc1 (some centres not stated)", "experimental.system": "Opioid receptors; mu & delta (Homo sapiens, UniProt P41143+P35372)", "experimental.readout": "log10 IC50", "meas.value": 3.02}
{"compound": "CC(C)C[C@@H](C(=O)NCCO)N(C)C(=O)CNC(=O)[C@@H](C)NC(=O)[C@@H](N)Cc1ccc(O)cc1", "experimental.system": "Opioid receptors; mu & delta (Homo sapiens, UniProt P41143+P35372)", "experimental.readout": "log10 IC50", "meas.value": 3.50}
{"compound": "CC[C@H](O)[C@H](NC(=O)[C@@H](N)Cc1ccc(O)cc1)C(=O)NCC(=O)N[C@@H](Cc1ccccc1)C(=O)N[C@@H](CC(C)C)C(=O)N[C@H](C(=O)O)[C@@H](C)O (H-Y[X1]GFLT-OH)", "experimental.system": "Opioid receptors; mu & delta (Homo sapiens, UniProt P41143+P35372)", "experimental.readout": "log10 IC50", "meas.value": -1.30}
